Origin of measurements: BigSolDB 2.1

- condition_info: in methanol, 313.15 K
parameter: solubility (mole fraction)
Give the figure by itself; no unit, no explanation.

# lookup: solubility (mole fraction) of O=C1/C(=C/c2ccc(O)cc2)CCC/C1=C\c1ccc(O)cc1
0.0066

====

- condition_info: in DMSO, 299.15 K
parameter: solubility (mole fraction)
Give the figure by itself; no unit, no explanation.

# lookup: solubility (mole fraction) of O=C1/C(=C/c2ccc(O)cc2)CCC/C1=C\c1ccc(O)cc1
0.0112

====

- condition_info: in DMSO, 328.15 K
parameter: solubility (mole fraction)
Give the figure by itself; no unit, no explanation.

# lookup: solubility (mole fraction) of O=C1/C(=C/c2ccc(O)cc2)CCC/C1=C\c1ccc(O)cc1
0.0742

====

- condition_info: in n-butanol, 313.15 K
parameter: solubility (mole fraction)

# lookup: solubility (mole fraction) of O=C1/C(=C/c2ccc(O)cc2)CCC/C1=C\c1ccc(O)cc1
0.0164

====

- condition_info: in DMF, 318.15 K
parameter: solubility (mole fraction)
Give the figure by itself; no unit, no explanation.

# lookup: solubility (mole fraction) of O=C1/C(=C/c2ccc(O)cc2)CCC/C1=C\c1ccc(O)cc1
0.0658

====

- condition_info: in THF, 328.15 K
parameter: solubility (mole fraction)

# lookup: solubility (mole fraction) of O=C1/C(=C/c2ccc(O)cc2)CCC/C1=C\c1ccc(O)cc1
0.0527

====

- condition_info: in acetic acid, 313.15 K
parameter: solubility (mole fraction)
Give the figure by itself; no unit, no explanation.

# lookup: solubility (mole fraction) of O=C1/C(=C/c2ccc(O)cc2)CCC/C1=C\c1ccc(O)cc1
0.0039

====

- condition_info: in methanol, 328.15 K
parameter: solubility (mole fraction)
Give the figure by itself; no unit, no explanation.

# lookup: solubility (mole fraction) of O=C1/C(=C/c2ccc(O)cc2)CCC/C1=C\c1ccc(O)cc1
0.0129

====

- condition_info: in methanol, 308.15 K
parameter: solubility (mole fraction)
Give the figure by itself; no unit, no explanation.

# lookup: solubility (mole fraction) of O=C1/C(=C/c2ccc(O)cc2)CCC/C1=C\c1ccc(O)cc1
0.0051

====

- condition_info: in DMF, 308.15 K
parameter: solubility (mole fraction)
Give the figure by itself; no unit, no explanation.

# lookup: solubility (mole fraction) of O=C1/C(=C/c2ccc(O)cc2)CCC/C1=C\c1ccc(O)cc1
0.0458

====

- condition_info: in n-propanol, 303.15 K
parameter: solubility (mole fraction)
Give the figure by itself; no unit, no explanation.

# lookup: solubility (mole fraction) of O=C1/C(=C/c2ccc(O)cc2)CCC/C1=C\c1ccc(O)cc1
0.0023

====

- condition_info: in acetic acid, 323.15 K
parameter: solubility (mole fraction)
Give the figure by itself; no unit, no explanation.

# lookup: solubility (mole fraction) of O=C1/C(=C/c2ccc(O)cc2)CCC/C1=C\c1ccc(O)cc1
0.0052

====

- condition_info: in THF, 318.15 K
parameter: solubility (mole fraction)
Give the figure by itself; no unit, no explanation.

# lookup: solubility (mole fraction) of O=C1/C(=C/c2ccc(O)cc2)CCC/C1=C\c1ccc(O)cc1
0.0387

====

- condition_info: in DMF, 323.15 K
parameter: solubility (mole fraction)
Give the figure by itself; no unit, no explanation.

# lookup: solubility (mole fraction) of O=C1/C(=C/c2ccc(O)cc2)CCC/C1=C\c1ccc(O)cc1
0.0816

====

- condition_info: in acetic acid, 303.15 K
parameter: solubility (mole fraction)
Give the figure by itself; no unit, no explanation.

# lookup: solubility (mole fraction) of O=C1/C(=C/c2ccc(O)cc2)CCC/C1=C\c1ccc(O)cc1
0.0034

====

- condition_info: in n-propanol, 328.15 K
parameter: solubility (mole fraction)

# lookup: solubility (mole fraction) of O=C1/C(=C/c2ccc(O)cc2)CCC/C1=C\c1ccc(O)cc1
0.0169

====

- condition_info: in ethyl acetate, 323.15 K
parameter: solubility (mole fraction)
Give the figure by itself; no unit, no explanation.

# lookup: solubility (mole fraction) of O=C1/C(=C/c2ccc(O)cc2)CCC/C1=C\c1ccc(O)cc1
0.0102

====

- condition_info: in n-butanol, 323.15 K
parameter: solubility (mole fraction)
Give the figure by itself; no unit, no explanation.

# lookup: solubility (mole fraction) of O=C1/C(=C/c2ccc(O)cc2)CCC/C1=C\c1ccc(O)cc1
0.021

====

- condition_info: in acetone, 328.15 K
parameter: solubility (mole fraction)

# lookup: solubility (mole fraction) of O=C1/C(=C/c2ccc(O)cc2)CCC/C1=C\c1ccc(O)cc1
0.0147

====

- condition_info: in THF, 299.15 K
parameter: solubility (mole fraction)
Give the figure by itself; no unit, no explanation.

# lookup: solubility (mole fraction) of O=C1/C(=C/c2ccc(O)cc2)CCC/C1=C\c1ccc(O)cc1
0.023

====

- condition_info: in acetone, 308.15 K
parameter: solubility (mole fraction)
Give the figure by itself; no unit, no explanation.

# lookup: solubility (mole fraction) of O=C1/C(=C/c2ccc(O)cc2)CCC/C1=C\c1ccc(O)cc1
0.0073

====

- condition_info: in n-propanol, 299.15 K
parameter: solubility (mole fraction)
Give the figure by itself; no unit, no explanation.

# lookup: solubility (mole fraction) of O=C1/C(=C/c2ccc(O)cc2)CCC/C1=C\c1ccc(O)cc1
0.0013

====

- condition_info: in DMSO, 313.15 K
parameter: solubility (mole fraction)
Give the figure by itself; no unit, no explanation.

# lookup: solubility (mole fraction) of O=C1/C(=C/c2ccc(O)cc2)CCC/C1=C\c1ccc(O)cc1
0.0251

====

- condition_info: in acetone, 299.15 K
parameter: solubility (mole fraction)

# lookup: solubility (mole fraction) of O=C1/C(=C/c2ccc(O)cc2)CCC/C1=C\c1ccc(O)cc1
0.0049

====

- condition_info: in DMF, 303.15 K
parameter: solubility (mole fraction)

# lookup: solubility (mole fraction) of O=C1/C(=C/c2ccc(O)cc2)CCC/C1=C\c1ccc(O)cc1
0.0388

====

- condition_info: in methanol, 323.15 K
parameter: solubility (mole fraction)
Give the figure by itself; no unit, no explanation.

# lookup: solubility (mole fraction) of O=C1/C(=C/c2ccc(O)cc2)CCC/C1=C\c1ccc(O)cc1
0.0102

====

- condition_info: in 1,4-dioxane, 323.15 K
parameter: solubility (mole fraction)
Give the figure by itself; no unit, no explanation.

# lookup: solubility (mole fraction) of O=C1/C(=C/c2ccc(O)cc2)CCC/C1=C\c1ccc(O)cc1
0.0153

====

- condition_info: in ethyl acetate, 303.15 K
parameter: solubility (mole fraction)
Give the figure by itself; no unit, no explanation.

# lookup: solubility (mole fraction) of O=C1/C(=C/c2ccc(O)cc2)CCC/C1=C\c1ccc(O)cc1
0.0031

====

- condition_info: in 1,4-dioxane, 299.15 K
parameter: solubility (mole fraction)
Give the figure by itself; no unit, no explanation.

# lookup: solubility (mole fraction) of O=C1/C(=C/c2ccc(O)cc2)CCC/C1=C\c1ccc(O)cc1
0.0074

====

- condition_info: in ethyl acetate, 308.15 K
parameter: solubility (mole fraction)
Give the figure by itself; no unit, no explanation.

# lookup: solubility (mole fraction) of O=C1/C(=C/c2ccc(O)cc2)CCC/C1=C\c1ccc(O)cc1
0.004

====

- condition_info: in n-butanol, 308.15 K
parameter: solubility (mole fraction)

# lookup: solubility (mole fraction) of O=C1/C(=C/c2ccc(O)cc2)CCC/C1=C\c1ccc(O)cc1
0.0152

====

- condition_info: in n-butanol, 318.15 K
parameter: solubility (mole fraction)
Give the figure by itself; no unit, no explanation.

# lookup: solubility (mole fraction) of O=C1/C(=C/c2ccc(O)cc2)CCC/C1=C\c1ccc(O)cc1
0.0178

====

- condition_info: in ethyl acetate, 328.15 K
parameter: solubility (mole fraction)
Give the figure by itself; no unit, no explanation.

# lookup: solubility (mole fraction) of O=C1/C(=C/c2ccc(O)cc2)CCC/C1=C\c1ccc(O)cc1
0.0136

====

- condition_info: in n-butanol, 328.15 K
parameter: solubility (mole fraction)

# lookup: solubility (mole fraction) of O=C1/C(=C/c2ccc(O)cc2)CCC/C1=C\c1ccc(O)cc1
0.0235

====

- condition_info: in DMF, 313.15 K
parameter: solubility (mole fraction)
Give the figure by itself; no unit, no explanation.

# lookup: solubility (mole fraction) of O=C1/C(=C/c2ccc(O)cc2)CCC/C1=C\c1ccc(O)cc1
0.0556

====

- condition_info: in n-propanol, 323.15 K
parameter: solubility (mole fraction)
Give the figure by itself; no unit, no explanation.

# lookup: solubility (mole fraction) of O=C1/C(=C/c2ccc(O)cc2)CCC/C1=C\c1ccc(O)cc1
0.0123
